Ref: patent US20150197492A1

This section presents compounds with their documented growth percentage values.
tested on: KM12; test: cells; assay type: cell-based; settings: KM12 (Colon Cancer), 10 μM, 48 hours

{"Structure Smiles": "O=C1c2cc(Cl)ccc2-c2c(O)nc3ccccc3c21", "Experimental System": "KM12", "growth percentage [%]": 102.73}
{"Structure Smiles": "O=C1c2cc(Cl)ccc2-c2c(Cl)nc3ccccc3c21", "Experimental System": "KM12", "growth percentage [%]": 111.92}
{"Structure Smiles": "CCN(CC)CCNc1nc2ccccc2c2c1-c1ccc(Cl)cc1C2=O", "Experimental System": "KM12", "growth percentage [%]": 53.42}
{"Structure Smiles": "COc1cccc(N2CCN(c3nc4ccccc4c4c3-c3ccc(Cl)cc3C4=O)CC2)c1", "Experimental System": "KM12", "growth percentage [%]": 105.95}
{"Structure Smiles": "CNc1nc2ccccc2c2c1-c1ccc(Cl)cc1C2=O", "Experimental System": "KM12", "growth percentage [%]": 66.82}
{"Structure Smiles": "O=C1c2cc(Cl)ccc2-c2c(N3CCOCC3)nc3ccccc3c21", "Experimental System": "KM12", "growth percentage [%]": 109.99}

====

test system: RXF 393; experiment: cells; type: cell-based; conditions: RXF 393 (Renal Cancer), 10 μM, 48 hours
We use 80% as the dividing line for growth percentage: on or above the line is 1, below is 0.

{"Compound": "O=C1c2cc(Cl)ccc2-c2c(Cl)nc3ccccc3c21 [TC-XCl-1]", "Assigned Label": 1}
{"Compound": "O=C1c2cc(Cl)ccc2-c2c(N3CCNCC3)nc3ccccc3c21 [SJ-10]", "Assigned Label": 0}
{"Compound": "CCN(CC)CCNc1nc2ccccc2c2c1-c1ccc(Cl)cc1C2=O [SJ-3]", "Assigned Label": 0}
{"Compound": "O=C1c2cc(Cl)ccc2-c2c(O)nc3ccccc3c21 [SJ-26]", "Assigned Label": 1}

====

Property: growth percentage; scope: individual molecules
system: SF-268; assay: cells; assay type: cell-based; settings: SF-268 (CNS Cancer), 10 μM, 48 hours

{"Structure Smiles": "O=C1c2cc(Cl)ccc2-c2c(N3CCNCC3)nc3ccccc3c21", "Unit Spec": "%", "growth percentage": 34.33}
{"Structure Smiles": "O=C1c2cc(Cl)ccc2-c2c(N3CCOCC3)nc3ccccc3c21", "Unit Spec": "%", "growth percentage": 103.58}
{"Structure Smiles": "CCN(CC)CCNc1nc2ccccc2c2c1-c1ccc(Cl)cc1C2=O", "Unit Spec": "%", "growth percentage": 65.88}
{"Structure Smiles": "O=C1c2cc(Cl)ccc2-c2c(N3CCN(C4CCCC4)CC3)nc3ccccc3c21", "Unit Spec": "%", "growth percentage": 96.39}
{"Structure Smiles": "O=C1c2cc(Cl)ccc2-c2c(N3CCSCC3)nc3ccccc3c21", "Unit Spec": "%", "growth percentage": 96.13}
{"Structure Smiles": "CN1CCN(c2nc3ccccc3c3c2-c2ccc(Cl)cc2C3=O)CC1", "Unit Spec": "%", "growth percentage": 92.35}
{"Structure Smiles": "CC1CCN(c2nc3ccccc3c3c2-c2ccc(Cl)cc2C3=O)CC1", "Unit Spec": "%", "growth percentage": 96.49}
{"Structure Smiles": "CNc1nc2ccccc2c2c1-c1ccc(Cl)cc1C2=O", "Unit Spec": "%", "growth percentage": 97.27}
{"Structure Smiles": "O=C1c2cc(Cl)ccc2-c2c(N3CCN(C(=O)N4CCCCC4)CC3)nc3ccccc3c21", "Unit Spec": "%", "growth percentage": 107.51}
{"Structure Smiles": "O=C1c2cc(Cl)ccc2-c2c(N3CCN(c4ccccc4)CC3)nc3ccccc3c21", "Unit Spec": "%", "growth percentage": 85.45}
{"Structure Smiles": "CN(C)c1nc2ccccc2c2c1-c1ccc(Cl)cc1C2=O", "Unit Spec": "%", "growth percentage": 100.26}
{"Structure Smiles": "O=C1c2cc(Cl)ccc2-c2c(O)nc3ccccc3c21", "Unit Spec": "%", "growth percentage": 106.64}
{"Structure Smiles": "O=C1c2cc(Cl)ccc2-c2c(SCCO)nc3ccccc3c21", "Unit Spec": "%", "growth percentage": 96.53}
{"Structure Smiles": "COc1nc2ccccc2c2c1-c1ccc(Cl)cc1C2=O", "Unit Spec": "%", "growth percentage": 113.64}
{"Structure Smiles": "O=C1c2cc(Cl)ccc2-c2c(Cl)nc3ccccc3c21", "Unit Spec": "%", "growth percentage": 117.27}
{"Structure Smiles": "COc1cccc(N2CCN(c3nc4ccccc4c4c3-c3ccc(Cl)cc3C4=O)CC2)c1", "Unit Spec": "%", "growth percentage": 83.89}

====

Recorded growth percentage for the following compounds
system: PC-3; assay: cells; format: cell-based; details: PC-3 (Prostate Cancer), 10 μM, 48 hours

{"Compound": "CCN(CC)CCNc1nc2ccccc2c2c1-c1ccc(Cl)cc1C2=O [SJ-3]", "Experimental System": "PC-3", "growth percentage [%]": 41.01}
{"Compound": "CN(C)c1nc2ccccc2c2c1-c1ccc(Cl)cc1C2=O [SJ-2]", "Experimental System": "PC-3", "growth percentage [%]": 82.55}
{"Compound": "O=C1c2cc(Cl)ccc2-c2c(N3CCN(c4ccccc4)CC3)nc3ccccc3c21 [SJ-16]", "Experimental System": "PC-3", "growth percentage [%]": 79.79}
{"Compound": "CC1CCN(c2nc3ccccc3c3c2-c2ccc(Cl)cc2C3=O)CC1 [SJ-6]", "Experimental System": "PC-3", "growth percentage [%]": 90.64}
{"Compound": "O=C1c2cc(Cl)ccc2-c2c(N3CCNCC3)nc3ccccc3c21 [SJ-10]", "Experimental System": "PC-3", "growth percentage [%]": -58.51}
{"Compound": "O=C1c2cc(Cl)ccc2-c2c(N3CCSCC3)nc3ccccc3c21 [SJ-9]", "Experimental System": "PC-3", "growth percentage [%]": 87.77}

====

system: SK-MEL-5; experiment: cells; format: cell-based; conditions: SK-MEL-5 (Melanoma), 10 μM, 48 hours
Parameter: growth percentage. Scope: all listed entries.

{"Structure Smiles": "O=C1c2cc(Cl)ccc2-c2c(N3CCSCC3)nc3ccccc3c21", "growth percentage / %": 89.52}
{"Structure Smiles": "O=C1c2cc(Cl)ccc2-c2c(N3CCOCC3)nc3ccccc3c21", "growth percentage / %": 99.19}
{"Structure Smiles": "O=C1c2cc(Cl)ccc2-c2c(SCCO)nc3ccccc3c21", "growth percentage / %": 68.56}
{"Structure Smiles": "CC1CCN(c2nc3ccccc3c3c2-c2ccc(Cl)cc2C3=O)CC1", "growth percentage / %": 98.52}
{"Structure Smiles": "CN1CCN(c2nc3ccccc3c3c2-c2ccc(Cl)cc2C3=O)CC1", "growth percentage / %": 97.67}
{"Structure Smiles": "O=C1c2cc(Cl)ccc2-c2c(O)nc3ccccc3c21", "growth percentage / %": 84.87}
{"Structure Smiles": "CN(C)c1nc2ccccc2c2c1-c1ccc(Cl)cc1C2=O", "growth percentage / %": 94.89}

====

GI % (10 μM) values by entry
system: human PC-3 cells; test: Sulforhodamine B (SRB) assay, cytotoxicity against PC-3 cells; type: cell-based; conditions: SRB assay, PC-3 cells, 10 μM

{"Structure Smiles": "O=C1c2cc(Cl)ccc2-c2c(N3CCC(CCCC4CCNCC4)CC3)nc3ccccc3c21", "GI % (10 μM), %": 100}
{"Structure Smiles": "O=C1c2cc(Cl)ccc2-c2c(N3CCSCC3)nc3ccccc3c21", "GI % (10 μM), %": 100}
{"Structure Smiles": "O=C1c2cc(Cl)ccc2-c2c(N3CCNCC3)nc3ccccc3c21", "GI % (10 μM), %": 100}
{"Structure Smiles": "CNc1nc2ccccc2c2c1-c1ccc(Cl)cc1C2=O", "GI % (10 μM), %": 100}
{"Structure Smiles": "O=C1c2cc(Cl)ccc2-c2c(N3CCN(Cc4ccccc4)CC3)nc3ccccc3c21", "GI % (10 μM), %": 73.53}
{"Structure Smiles": "CC1CCN(c2nc3ccccc3c3c2-c2ccc(Cl)cc2C3=O)CC1", "GI % (10 μM), %": 89.81}
{"Structure Smiles": "O=C1c2cc(Cl)ccc2-c2c(N3CCC(N4CCCCC4)CC3)nc3ccccc3c21", "GI % (10 μM), %": 98.83}

====

tested on: human PC-3 cells; assay: Sulforhodamine B (SRB) assay, cytotoxicity against PC-3 cells; type: cell-based; conditions: Homo sapiens; SRB assay, PC-3 cells, 48 hours; read-out: IC50
pIC50: −log10 of the molar value.
Each entry below carries its recorded pIC50.

{"Structure Smiles": "O=C1c2cc(Cl)ccc2-c2c(Cl)nc3ccccc3c21", "pIC50": "< 4.82"}
{"Structure Smiles": "O=C1c2cc(Cl)ccc2-c2c(SCCO)nc3ccccc3c21", "pIC50": "< 5.00"}
{"Structure Smiles": "O=C1c2cc(Cl)ccc2-c2c(N3CCOCC3)nc3ccccc3c21", "pIC50": "< 5.00"}
